assayTarget: Bcl-2-like protein 1 (Homo sapiens)
Sequence (Q07817 whole entry): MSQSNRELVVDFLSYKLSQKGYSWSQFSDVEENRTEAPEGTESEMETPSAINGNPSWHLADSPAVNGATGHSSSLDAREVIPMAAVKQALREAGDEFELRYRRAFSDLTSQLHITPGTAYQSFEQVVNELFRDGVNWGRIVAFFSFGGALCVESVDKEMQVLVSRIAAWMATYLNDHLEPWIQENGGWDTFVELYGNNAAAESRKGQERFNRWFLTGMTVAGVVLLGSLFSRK
procedureText: Inhibition of Bcl-XL
measuredMetric: log10 of EC50 (log10 of the value in nM)
// do not treat as linear: log10 of EC50, unit nM

// query Please report log10 of EC50 with Bcl-2-like protein 1 (Homo sapiens) for item CN(C)CCC(CSc1ccccc1)Nc1ccc(S(=O)(=O)NC(=O)c2ccc(N3CCC(=Cc4ccc(C(F)(F)F)cc4)CC3)cc2)cc1[N+](=O)[O-] (stereo not drawn) .
// result 3.41

// query State the measured log10 of EC50 (Bcl-2-like protein 1 (Homo sapiens)) of COc1ccccc1C=C1CCN(c2ccc(C(=O)NS(=O)(=O)c3ccc(NC(CCN(C)C)CSc4ccccc4)c([N+](=O)[O-])c3)cc2)CC1 (stereo not drawn)
// result 2.48

// query Look up and report measured log10 of EC50 (Bcl-2-like protein 1 (Homo sapiens)) for the following compound: CN(C)CCC(CSc1ccccc1)Nc1ccc(S(=O)(=O)NC(=O)c2ccc(N3CCN(Cc4ccccc4S(C)(=O)=O)CC3)cc2)cc1[N+](=O)[O-] (stereo not drawn)
// result 3.74

// query Would you please give the reported log10 of EC50 of CN(C)CCC(CSc1ccccc1)Nc1ccc(S(=O)(=O)NC(=O)c2ccc(N3CCN(Cc4ccccc4NC4CCCCC4)CC3)cc2)cc1[N+](=O)[O-] (stereo not drawn) with Bcl-2-like protein 1 (Homo sapiens)?
// result 2.82

// query Answer with log10 of EC50 of CN(C)CCC(CSc1ccccc1)Nc1ccc(S(=O)(=O)NC(=O)c2ccc(N3CCN(Cc4ccccc4-c4cccnc4)CC3)cc2)cc1[N+](=O)[O-] (stereo not drawn) measured for Bcl-2-like protein 1 (Homo sapiens).
// result 2.90

// query Would you please give the reported log10 of EC50 of CN(C)CCC(CSc1ccccc1)Nc1ccc(S(=O)(=O)NC(=O)c2ccc(N3CCC(=Cc4ccc(F)cc4)CC3)cc2)cc1[N+](=O)[O-] (stereo not drawn) with Bcl-2-like protein 1 (Homo sapiens)?
// result 2.58

// query GET log10 of EC50 | system: Bcl-2-like protein 1 (Homo sapiens) | item: COC1(CC(C)C)CCN(c2ccc(C(=O)NS(=O)(=O)c3ccc(NC(CCN(C)C)CSc4ccccc4)c([N+](=O)[O-])c3)cc2)CC1 (stereo not drawn)
// result 2.76

// query Please tell me the measured log10 of EC50 for CN(C)CCC(CSc1ccccc1)Nc1ccc(S(=O)(=O)NC(=O)c2ccc(N3CCN(Cc4ccccc4C4CCCCC4)CC3)cc2)cc1[N+](=O)[O-] (stereo not drawn) ; system: Bcl-2-like protein 1 (Homo sapiens).
// result 2.53

// query Param request: log10 of EC50 | system Bcl-2-like protein 1 (Homo sapiens) | item COC1(Cc2ccccc2)CCN(c2ccc(C(=O)NS(=O)(=O)c3ccc(NC(CCN(C)C)CSc4ccccc4)c([N+](=O)[O-])c3)cc2)CC1 (stereo not drawn)
// result 2.83

// query Fill in: log10 of EC50 on Bcl-2-like protein 1 (Homo sapiens), entry CN(C)CCC(CSc1ccccc1)Nc1ccc(S(=O)(=O)NC(=O)c2ccc(N3CCN(Cc4ccccc4-c4ccc(S(C)(=O)=O)cc4)CC3)cc2)cc1[N+](=O)[O-] (stereo not drawn)
// result 2.66

// query Provide the reported log10 of EC50 (system: Bcl-2-like protein 1 (Homo sapiens)) for CN(C)CCC(CSc1ccccc1)Nc1ccc(S(=O)(=O)NC(=O)c2ccc(N3CCC(=Cc4ccccc4F)CC3)cc2)cc1[N+](=O)[O-] (stereo not drawn)
// result 2.40

// query Give log10 of EC50 for this entry on Bcl-2-like protein 1 (Homo sapiens): CN(C)CCC(CSc1ccccc1)Nc1ccc(S(=O)(=O)NC(=O)c2ccc(N3CCC(=Cc4ccc(Cl)cc4)CC3)cc2)cc1[N+](=O)[O-] (stereo not drawn)
// result 2.79

// query Would you please give the reported log10 of EC50 of CSc1ccccc1CN1CCN(c2ccc(C(=O)NS(=O)(=O)c3ccc(NC(CCN(C)C)CSc4ccccc4)c([N+](=O)[O-])c3)cc2)CC1 (stereo not drawn) with Bcl-2-like protein 1 (Homo sapiens)?
// result 1.98
